Reported EC50 by item:
Molecular target: human IL5 (human, UniProt P05113 20-134, biotinylated (IL5-biotin) in Examples 2, 5, 6, 9 and 11; site not stated)
Assay: ELISA
reported endpoint: EC50 (µg/mL)

binder: Nb66 (VHH) VHH: QVQLQESGGGSVQAGGSLRLSCAASGYTVSSNMGWFRQAPGKEREGVAAIYPDGATYYADSVKGRFTISQDNAENTVYLQMNSLKPEDTAMYYCAADLAFNGLGTLALHGYWGQGTQVTVSS
scale unit: µg/mL
numeric readout: 0.0327

binder: Nb92 (VHH) VHH: QVQLQESGGGLVQPGGSLRLSCAASGFTFSNYYMSWVRQAPGKGLEWVSSISSDGSNTYYEDSVKGRFTISRDNANNTLYLQMNSLKSEDTALYHCATDLYDDSWYDHWGQGTQVTVSS
scale unit: µg/mL
numeric readout: 0.0432

binder: Nb21 (VHH) VHH: QVQLQESGGGSAQAGGSLKLSCVVSGYPYSGDYCMGWFRQAPGKEREGVAAFYTGGGSTYYADSVKGRFTTSQDNATSTFHLQMNSLKPEDTATYYCAADPWSVYGGSCGVKDPNPKAFNYWGQGTQVTVSS
scale unit: µg/mL
numeric readout: 0.0357

binder: Nb25 (VHH) VHH: QVQLQESGGGSVQAGGSLRLSCAASEYTYSRYCMGWFRQVPGKEREGVATIDSDGSTSYADSVKGRFTISKDNAKNTLYLQMNSLKPEDTAMYYCAARYFYIATTGLRPCGEYEYNYWGQGTQVTVSS
scale unit: µg/mL
numeric readout: 0.0427
